Hey, just so you know, these numbers are from the supplement of paper PMC11451515.

Collected cell viability values appear next to each entry.
tested on: P12-Ichikawa; test: cell viability relative to DMSO control; higher = less cytotoxic; conditions: RPMI 5 mM glucose + 10% FBS; 48 h; 1.71 µM
experimental endpoint: cell viability (%)

| molecule | experimental endpoint | assay result |
| --- | --- | --- |
| Oc1ccc([C@@H]2Oc3ccc(O)cc3[C@@H]3CCC[C@@H]32)cc1 | cell viability | 85.4 |
| Cc1cnc(Nc2ccc(N3CCN(C)CC3)cc2)nc1Nc1cccc([S+](=O)([O-])NC(C)(C)C)c1 | cell viability | 91.3 |
| CC(C)c1c(C(=O)Nc2ccccc2)c(-c2ccccc2)c(-c2ccc(F)cc2)n1CC[C@@H](O)C[C@@H](O)CC(=O)[O-] | cell viability | 87.6 |
| CC(C)(Sc1ccc(CCN(CCCCC2CCCCC2)C(=O)NC2CCCCC2)cc1)C(=O)O | cell viability | 102 |
| N=C(N)Nc1ccc(C(=O)Oc2ccc3cc(C(=N)N)ccc3c2)cc1 | cell viability | 97 |
| C[C@H](Cc1ccc(O)c(O)c1)[C@@H](C)Cc1ccc(O)c(O)c1 | cell viability | 125 |
| Cc1c(C(=O)c2cccc3ccccc23)c2cccc3c2n1[C@H](CN1CCOCC1)CO3 | cell viability | 84.5 |
| CN(C(Cc1ccc(O[S+](=O)([O-])c2cccc3cnccc23)cc1)C(=O)N1CCN(c2ccccc2)CC1)[S+](=O)([O-])c1cccc2cnccc12 (stereo not drawn) | cell viability | 97.7 |

====

tested on: SEM cells; experiment: cell viability relative to DMSO control; higher = less cytotoxic; conditions: RPMI 5 mM glucose + 10% FBS; 48 h; 0.569 µM

| compound | cell viability, % |
| --- | --- |
| C1COC(NC(C2CC2)C2CC2)=N1 | 87.2 |
| CN(C)CCc1c[nH]c2ccc(C[S+](=O)([O-])N3CCCC3)cc12 | 96.8 |
| CC(C)(Sc1ccc(CCN(CCCCC2CCCCC2)C(=O)NC2CCCCC2)cc1)C(=O)O | 105 |
| CCC(C1CCC(C)C(O1)C(C)C(O)C(C)C(=O)C(CC)C2OC\3(O[C@]4(CC[C@@](C)(O4)C5CC[C@@](O)(CC)C(C)O5)C(O)\C=C3)C(C)CC2C)C([O-])=O (stereo partly drawn) | 98.3 |
| Cc1cnc(Nc2ccc(N3CCN(C)CC3)cc2)nc1Nc1cccc([S+](=O)([O-])NC(C)(C)C)c1 | 77.8 |
| C1CN\2C[C@@H](\N=C2S1)C3=CC=CC=C3 | 87.6 |
| Oc1ccc(-c2ccc(-c3cc(Nc4cccc(CNC5CC5)c4)[nH]n3)cc2)c(O)c1 | 110 |
| COC(=O)Nc1nc2ccc([S+]([O-])c3ccccc3)cc2[nH]1 (stereo not drawn) | 107 |
| Oc1ccc2ccccc2c1SSc1c(O)ccc2ccccc12 | 103 |
| Cc1ccc([S+](=O)([O-])Nc2cc(Cl)ccc2C(=O)Nc2nc(-c3ccccc3)cs2)cc1 | 32.1 |
| CC(C)Cn1cnc2c(N)nc3ccccc3c21 | 104 |
| C[C@]\12CCC(=O)\C=C1[C@@H]3C[C@@H]3[C@@H]4[C@@H]2CC[C@@]5(C)[C@H]4[C@@H]6C[C@@H]6[C@@]57CCC(=O)O7 | 124 |
| COc1cc2ncn(-c3cc(OCc4ccccc4C(F)(F)F)c(C(N)=O)s3)c2cc1OC | 128 |
| O=C1CCCC(=O)C1C(=O)c1ccc(C(F)(F)F)cc1[N+](=O)[O-] | 112 |
| O=[S+]([O-])(NCCNC/C=C/c1ccc(Br)cc1)c1cccc2cnccc12 | 105 |
| OCCN(CCO)c1nc(N2CCCCC2)c2nc(N(CCO)CCO)nc(N3CCCCC3)c2n1 | 111 |
| O=C(O)Cc1cccc(OCCCN(Cc2cccc(C(F)(F)F)c2Cl)CC(c2ccccc2)c2ccccc2)c1 | 92 |
| CN(C)CCOc1ccc(/C(=C(/CCCl)c2ccccc2)c2ccccc2)cc1 | 100 |
